Value source: patent US20210261937

Molecular target: bdSUMO-MBP fusion protein
QUANTITY NAME: cleavage of the SUMO fusion protein

Problem: # return recorded cleavage of the SUMO fusion protein for input bdSENP1 from B. distachyon (protein) PFVPLTDEDEDNVRHALGGRKRSETLSVHEASNIVITREILQCLNDKEWLNDEVINLYLELLKERELREPNKFLKCHFFNTFFYKKLINGGYDYKSVRRWTTKRKLGYNLIDCDKIFVPIHKDVHWCLAVINIKEKKFQYLDSLGYMDMKALRILAKYLVDEVKDKSGKQIDVHAWKQEGVQNLPLQENGWDCGMFMLKYIDFYSRDMELVFGQKHMSYFRRRTAKEILDLKAG
Result: 100 % cleavage

Problem: Tell me measured cleavage of the SUMO fusion protein for bdSENP1^MutJ (protein) PFVPLTDEDEDNVRHALGGRKESETLSVHEASSIVITREILQCLNDKEWLNDEVINLYLELLKERELREPNKFLKCHFFNTFFYKKLINGGYDYKSVRSWTTTRKLGYNLIDCDKIFVPIHKDVHWCLAVINIKEKKFQYLDSLGYMDMKALRILAKYLVDEVKDKSGKQIDVHAWKQEGVQNLPLQENGWDCGMFMLKYIDFYSRDMELVFGQKHMSYFRRRTAKEILDLKAG please.
Result: < 50 % cleavage

Problem: For the protein bdSENP1^MutB protease (protein) PFVPLTDEDEDNVRHALGGRKRSETLSVHEASSIVITREILQCLNDKEWLNDEVINLYLELLKERELREPNKFLKCHFFNTFFYKKLINGGYDYKSVREWTTKRKLGYNLIDCDKIFVPIHKDVHWCLAVINIKEKKFQYLDSLGYMDMKALRILAKYLVDEVKDKSGKQIDVHAWKQEGVQNLPLQENGWDCGMFMLKYIDFYSRDMELVFGQKHMSYFRRRTAKEILDLKAG , report cleavage of the SUMO fusion protein.
Result: < 25 % cleavage

Problem: Using known records, supply cleavage of the SUMO fusion protein for bdSENP1^MutK (protein) PFVPLTDEDEDNVRHALGGRKVSETLSVHEASQIVITREILQCLNDKEWLNDEVINLYLELLKERELREPNKFLKCHFFNTFFYKKLINGGYDYKSVRVWTTGRKLGYNLIDCDKIFVPIHKDVHWCLAVINIKEKKFQYLDSLGYMDMKALRILAKYLVDEVKDKSGKQIDVHAWKQEGVQNLPLQENGWDCGMFMLKYIDFYSRDMELVFGQKHMSYFRRRTAKEILDLKAG
Result: < 50 % cleavage
